target_of_assay: human Y4 receptor (human, UniProt P50391 1-375)
Sequence (P50391 whole entry): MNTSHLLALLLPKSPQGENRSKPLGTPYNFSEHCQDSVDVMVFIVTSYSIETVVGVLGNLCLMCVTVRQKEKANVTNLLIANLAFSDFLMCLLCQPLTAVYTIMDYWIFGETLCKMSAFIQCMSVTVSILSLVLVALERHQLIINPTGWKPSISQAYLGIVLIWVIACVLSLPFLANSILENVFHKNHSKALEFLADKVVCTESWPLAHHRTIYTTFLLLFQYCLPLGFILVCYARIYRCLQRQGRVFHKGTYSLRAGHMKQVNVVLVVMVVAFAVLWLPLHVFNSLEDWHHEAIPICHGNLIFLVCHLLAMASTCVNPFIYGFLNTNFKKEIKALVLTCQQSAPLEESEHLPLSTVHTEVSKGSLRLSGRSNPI
procedure_summary: 125I-PP displacement
test_readout: IC50 (nM)

1. PAPLEPVYPGDNATPEELARYAAELRRYINKLTRPRY [4057769]: 0.117
2. PAPLEPHYPGDNATPEQMAKYAAALRRYINKLTRPRY [4057756]: 0.124
3. GAPLEPHYPGDNATPEQMARYAAELRRYINKLTRPRY [4057903]: 0.09
